# studyTarget: Cysteinyl leukotriene receptor 1 (Cavia porcellus)
# Sequence (Q2NNR5 whole entry): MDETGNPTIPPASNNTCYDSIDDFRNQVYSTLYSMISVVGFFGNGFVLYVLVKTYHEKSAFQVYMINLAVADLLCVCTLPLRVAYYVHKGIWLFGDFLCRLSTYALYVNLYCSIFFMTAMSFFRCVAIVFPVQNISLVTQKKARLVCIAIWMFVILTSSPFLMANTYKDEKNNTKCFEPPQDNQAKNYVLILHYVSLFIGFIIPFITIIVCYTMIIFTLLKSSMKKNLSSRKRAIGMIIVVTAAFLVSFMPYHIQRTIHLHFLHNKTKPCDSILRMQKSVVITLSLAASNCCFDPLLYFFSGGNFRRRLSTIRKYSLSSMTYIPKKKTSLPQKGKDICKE
measuredAttribute: IC50 (nM)

# compound, measuredAttribute, recordedValue
records = [
    ("O=C(O)c1ccccc1Nc1cccc(OCc2ccc3ccccc3n2)c1 [SR-2640]", "IC50", 23),
]

----------
Quick list: Ki per entry.
# studyTarget: Cysteinyl leukotriene receptor 1 (Cavia porcellus)
# methodDescription: Binding affinity against Cysteinyl leukotriene D4 receptor from guinea pig lung was determined using [3H]-LTD4 (0.2 nM)

# compoundStructureString, Ki / nM
rows = [
    ("c1ccc2nc(COc3ccc(OCc4ccc(Cc5nnn[nH]5)cc4)cc3)ccc2c1", 8.5),
    ("c1cc(OCc2ccc3ccccc3n2)cc(OCc2ccccc2Cc2nnn[nH]2)c1", 12),
    ("c1cc(OCc2cccc(-c3nn[nH]n3)c2)cc(OCc2ccc3ccccc3n2)c1", 16),
    ("Clc1ccc2ccc(/C=C/c3ccc(OCc4ccccc4Cc4nnn[nH]4)cc3)nc2c1", 2.5),
    ("COc1cc(-c2nn[nH]n2)ccc1COc1cccc(OCc2ccc3ccccc3n2)c1", 4.3),
    ("c1cc(OCc2ccc(-c3nnn[nH]3)cc2)cc(OCc2ccc3ccccc3n2)c1", 10),
    ("C(=C\\c1cccc(-c2nn[nH]n2)c1)/c1cccc(OCc2ccc3ccccc3n2)c1", 8.5),
    ("c1cc(COc2ccc(OCc3ccc4ccccc4n3)cc2)cc(OCc2nn[nH]n2)c1", 8),
    ("Clc1ccc2ccc(COc3ccc(OCc4ccccc4Cc4nnn[nH]4)cc3)nc2c1", 2.5),
]
